Values from ChEMBL document CHEMBL2157980

Experiment: Oral bioavailability in dog at 5 mg/kg administered with 0.4% HPMC
Settings: in vivo
PARAMETER MEASURED: bioavailability (%)
Numbers only, in %.

So, CS(=O)(=O)CC[C@@H]1OCC[C@@]2(S(=O)(=O)c3ccc(Cl)cc3)c3c(F)ccc(F)c3OC[C@@H]12 ? Its bioavailability was 86

###

Experiment: Oral bioavailability in monkey at 5 mg/kg administered with 0.4% HPMC
Conditions: rhesus monkey, in vivo
PARAMETER MEASURED: bioavailability

So, CS(=O)(=O)CC[C@@H]1OCC[C@@]2(S(=O)(=O)c3ccc(Cl)cc3)c3c(F)ccc(F)c3OC[C@@H]12 ? Its bioavailability was 45%
